Recorded pIC50 for the following compounds
# System: K562
# experimentalProtocol: Cytotoxicity against human K562 cells assessed as cell growth inhibition after 48 hrs by MTT assay
# Assay type: cell-based
# conditionInfo: K562, 48 h, read-out: IC50
pIC50: −log10 of the molar value.

{"smilesText": "COc1cc2c(cc1OC)CN(CCc1ccc(-n3cc(CNc4ccccc4NC(=O)c4ccc5ccccc5n4)nn3)cc1)CC2", "targetDesc": "K562", "pIC50": "< 4.00"}
{"smilesText": "COc1cc2c(cc1OC)CN(CCc1ccc(-n3cc(CNc4ccccc4NC(=O)c4ccsc4C)nn3)cc1)CC2", "targetDesc": "K562", "pIC50": "< 4.00"}
{"smilesText": "COc1cc2c(cc1OC)CN(CCc1ccc(NC(=O)c3cc(OC)c(OC)cc3NC(=O)c3cnc4ccccc4c3)cc1)CC2", "targetDesc": "K562", "pIC50": 4.73}
{"smilesText": "COc1cc2c(cc1OC)CN(CCc1ccc(-n3cc(CNc4ccccc4NC(=O)c4cccnc4Cl)nn3)cc1)CC2", "targetDesc": "K562", "pIC50": 4.37}

Returns the measured pIC50 for the input compound. Input: "COc1cc2c(cc1OC)CN(CCc1ccc(-n3cc(CNc4ccccc4NC(=O)c4ccc(Cl)s4)nn3)cc1)CC2"
< 4.00

Returns the measured pIC50 for the input compound. Input: "COc1cc2c(cc1OC)CN(CCc1ccc(-n3cc(CNc4ccccc4NC(=O)c4ccncc4)nn3)cc1)CC2"
< 4.00

---

# System: K562/A02
# experimentalProtocol: Cytotoxicity against human K562/A02 cells overexpressing P-gp assessed as cell growth inhibition after 48 hrs by MTT assay
# Type: cell-based
# conditionInfo: K562/A02, 48 h
Recorded IC50 for the following compounds

{"compound": "COc1cc2c(cc1OC)CN(CCc1ccc(-n3cc(CNc4ccccc4NC(=O)c4ccccn4)nn3)cc1)CC2", "IC50": "52.1 µM"}
{"compound": "COc1cc2c(cc1OC)CN(CCn1cc(CNc3ccccc3NC(=O)c3ccco3)nn1)CC2", "IC50": "> 100 µM"}
{"compound": "COc1cc2c(cc1OC)CN(CCn1cc(CNc3ccccc3NC(=O)c3ccc(Cl)s3)nn1)CC2", "IC50": "> 100 µM"}

Returns the measured IC50 for the input compound. Input: "COc1cc2c(cc1OC)CN(CCn1cc(CNc3ccccc3NC(=O)c3sccc3C)nn1)CC2"
> 100 µM

Returns the measured IC50 for the input compound. Input: "COc1cc2c(cc1OC)CN(CCc1ccc(-n3cc(CNc4ccccc4NC(=O)c4ccc(Cl)s4)nn3)cc1)CC2"
63.2 µM

Returns the measured IC50 for the input compound. Input: COc1ccc(CCN(C)CCCC(C#N)(c2ccc(OC)c(OC)c2)C(C)C)cc1OC (stereo not given)
59.2 µM

Returns the measured IC50 for the input compound. Input: "COc1cc2c(cc1OC)CN(CCc1ccc(-n3cc(CNc4ccccc4NC(=O)c4ccc(C)s4)nn3)cc1)CC2"
> 100 µM

Returns the measured IC50 for the input compound. Input: "COc1cc2c(cc1OC)CN(CCc1ccc(-n3cc(CNc4ccccc4NC(=O)c4ccsc4)nn3)cc1)CC2"
65.9 µM

Returns the measured IC50 for the input compound. Input: "COc1cc2c(cc1OC)CN(CCn1cc(CNc3ccccc3NC(=O)c3ccncc3)nn1)CC2"
> 100 µM

Returns the measured IC50 for the input compound. Input: "COc1cc2c(cc1OC)CN(CCc1ccc(-n3cc(CNc4ccccc4NC(=O)c4ccc5ccccc5n4)nn3)cc1)CC2"
58.1 µM
